Target Or System: T1, Ab-1
T1 construct: also called anti-CD28 scFv harbored in Ab-1
Protocol Description: competition ELISA, peptide titrated vs 1 nM Ab-1 binding plate-bound CD28
No end group written: not given here.
Measured Quantity: IC50 (nM)
// units = nM; emit number, no label

I'd like to know its IC50. The binder in question is IDWCPLHLWHECYH (cysteine pairing not given here; also: biotinylated, site not given here) [Peptide-24]
1520

I'd like to know its IC50. The binder in question is IYWCPIDRWNDCYN (cysteine pairing not given here; also: biotinylated, site not given here) [Peptide-26]
410

I'd like to know its IC50. The binder in question is MDWCPRDLWVHCFA (cysteine pairing not given here; also: biotinylated, site not given here) [Peptide-1]
200

I'd like to know its IC50. The binder in question is IDWCPRYLWDECYN (cysteine pairing not given here; also: biotinylated, site not given here) [Peptide-23]
140

I'd like to know its IC50. The binder in question is LDWCPRHLWALCFN (cysteine pairing not given here; also: biotinylated, site not given here) [Peptide-22]
470

Just for reference, patent US20260274955A1 is where these values come from.
